The entries below are paired with their reported IC50.
- Measured target: 15-PGDH/HPGD (Homo sapiens)
- Sequence (P15428 whole entry): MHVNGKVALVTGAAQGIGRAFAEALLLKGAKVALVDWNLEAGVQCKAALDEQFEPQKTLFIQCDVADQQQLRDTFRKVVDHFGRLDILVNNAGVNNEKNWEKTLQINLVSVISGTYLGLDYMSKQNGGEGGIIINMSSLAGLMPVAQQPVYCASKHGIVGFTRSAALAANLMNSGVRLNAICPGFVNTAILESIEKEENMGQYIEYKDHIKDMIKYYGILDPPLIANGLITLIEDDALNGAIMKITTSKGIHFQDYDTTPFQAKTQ
- Assay name: hPGDH inhibitor screening biochemical assay
- Condition description: 10 nM enzyme, 15 μM Prostaglandin E2, 0.25 mM NAD, fluorescence ex/em 340/485 nm
- Source text: A hydroxyprostaglandin dehydrogenase inhibition screening biochemical assay can be performed to assess the synthesized inhibitors provided herein. Provided herein is an exemplary biochemical assay for hPGDH inhibitor screening. […]

Answered cases to consult:
Compound | IC50
O=C(O)c1ccc(-n2ncc3cc([C@@H](O)COCC4CC4)ccc32)cc1 [Compound 114A] | 100 to 1000 nM
O=C(O)CCc1ccc(-n2ncc3cc([C@H](O)COC4CCCC4)cnc32)cc1F [Compound 88B] | < 100 nM
O=C(O)c1ccc(-n2ncc3cc([C@@H](O)C4COC4)ccc32)cc1 [Compound 120B] | 100 to 1000 nM
CC(C)C[C@@H](O)[C@@H](O)c1cnc2c(ccn2-c2cccc(-c3nnc[nH]3)c2)c1 | < 100 nM

Inquiry: Please supply the value of reported IC50 for the item CC(C)OC[C@@H](O)c1cnc2c(cnn2-c2ccc(CC(=O)O)cc2)c1 [Compound 71A]
Reply text: 100 to 1000 nM

Inquiry: Tell me IC50 reported for O[C@@H](c1cnc2c(ccn2-c2cccc(-c3nnc[nH]3)c2)c1)C1CCC1 [Compound 10B]
Reply text: < 100 nM

Inquiry: Query IC50 for COC(C)(C)C[C@H](O)c1cnc2c(cnn2-c2cccc(-c3nnc[nH]3)c2)c1 [Compound 54B]
Reply text: < 100 nM

Inquiry: Name the recorded IC50 of the compound listed here: CNC(=O)c1ccc(-n2ncc3cc([C@H](O)COC4CCC4)cnc32)cc1 [Compound 84A]
Reply text: < 100 nM
